target of assay: T1, IRF4 DBD L116R (human, UniProt Q15306 21-130, L116R)
T1 sequence: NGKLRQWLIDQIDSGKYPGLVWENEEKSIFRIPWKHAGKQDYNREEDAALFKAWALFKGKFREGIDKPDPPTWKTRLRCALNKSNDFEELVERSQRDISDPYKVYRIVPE
assay summary: SPR
Examples of binders with documented Kd follow.

Would you please look over these solved cases?
EICE1 (dsDNA) DNA 1: TAAAAGGAAGTGAAACCAAG DNA 2: CTTGGTTTCACTTCCTTTTA; 60 nM
ISRE (SPR) (dsDNA) DNA 1: CAACTGAAACCGAGAAAGC DNA 2: GCTTTCTCGGTTTCAGTTG; 60 nM

# Kd lookup, item AICE1 (dsDNA) DNA 1: TAGTGCAGAAATGAGTCAGAGA DNA 2: TCTCTGACTCATTTCTGCACTA 2210 nM
